# Assay Explanation: binders from COS7 lysate, DM2A8 probe, primary screen, torsin A project, cell lysate, small-molecule microarray, fluorescence 635/667 (AID 1065)
# Run Conditions: higher = more signal, COS7 lysate expressing mutant human TOR1A
Listing: composite z-score of selected compounds
Observation Type: composite z-score

[[record]]
compound = "COc1cc2c(cc1O)C(c1ccc(CN3CCCC3)cc1)N(Cc1cccc(OC(F)(F)F)c1)CC2 (stereo not given)"
quantitative_readout = 0.956

[[record]]
compound = "CN(C)CCCNC(=O)[C@@H]1c2ccccc2C(=O)N(C2Cc3ccccc3C2)[C@H]1c1ccc(CO)cc1"
quantitative_readout = 0.345

[[record]]
compound = "COCCOC(=O)N1C(=O)[C@@]2(c3cc(C#CC4(O)CCCCCC4)ccc31)[C@H](c1ccccc1OCCO)N1[C@H](c3ccccc3)[C@H](c3ccccc3)OC(=O)[C@H]1[C@@H]2C(=O)N1CCCCCCC1"
quantitative_readout = 1.24

[[record]]
compound = "C#CCN(C/C=C/c1ccccc1)[C@H](CO[Si](C)(C)C(C)(C)C)c1ccccc1"
quantitative_readout = -0.0566

[[record]]
compound = "COCCOC(=O)N1C(=O)[C@@]2(c3cc(C#CCCO)ccc31)[C@H](c1ccccc1OCCO)N1[C@H](c3ccccc3)[C@H](c3ccccc3)OC(=O)[C@H]1[C@@H]2C(=O)N1CCc2cc(OC)c(OC)cc2C1"
quantitative_readout = 0.827

[[record]]
compound = "C=CCC(OC(C)=O)[C@@H]1[C@@H](N(Cc2cc3ccccc3o2)C(=O)c2cccc3ccccc23)c2cc(OCCCO)ccc2N1C(=O)c1ccc2ccccc2c1 (stereo not given in full)"
quantitative_readout = -0.267

[[record]]
compound = "CN1C(=O)C2C(C1=O)C1C=C(c3ccc(CO)cc3)C2C(c2cccs2)N1C (stereo not given)"
quantitative_readout = 0.429

[[record]]
compound = "COC(=O)[C@@]1(Cc2ccc(F)cc2)[C@H]2c3cc(C(=O)N(C)C)n(CCn4cc([N+](=O)[O-])nc4C)c3C[C@H]2CN1C(=O)c1ccccc1"
quantitative_readout = -0.498

[[record]]
compound = "CC(C)N1CC=CC23O[C@@H]4C=CCCOC(=O)C4[C@H]2C(=O)N(CCCCCO)[C@@H]3C1=O (stereo not given in full)"
quantitative_readout = -1.06

[[record]]
compound = "CCCCC(O)C1C=CC2C(=O)N(C)C(=O)C2N1Nc1ccccc1 (stereo not given)"
quantitative_readout = 0.0873

[[record]]
compound = "CC1CC/C=C\\[C@H]2OC34C=CCN(CCN5CCOCC5)C(=O)[C@H]3N(CCCCCCO)C(=O)[C@@H]4C2C(=O)O1 (stereo not given in full)"
quantitative_readout = -0.686

[[record]]
compound = "[N-]=[N+]=NCc1ccccc1C[C@]1(C(=O)O)COC(c2ccc(OCCCO)cc2)=N1"
quantitative_readout = -0.167

[[record]]
compound = "CN(C)CCCC[C@@H]1NC(=O)[C@@H]2C[C@H](C(=O)NCc3ccc(F)cc3)[C@H](c3ccc(O)cc3)N2C1=O"
quantitative_readout = 0.295

[[record]]
compound = "C=CC[C@]1(C(=O)NCCCOC)N=C(c2ccc(OCCCO)cc2)O[C@H]1c1ccccc1"
quantitative_readout = -0.188

[[record]]
compound = "C=CCC(OC(C)=O)[C@@H]1[C@@H](N(Cc2ccc(-c3ccccc3)cc2)C(=O)c2cccc3ccccc23)c2cc(OCCCO)ccc2N1C(=O)c1ccc2ccccc2c1 (stereo not given in full)"
quantitative_readout = -0.0509

